Target: human ALK5 (Homo sapiens, UniProt P36897)
Sequence (P36897 162-503): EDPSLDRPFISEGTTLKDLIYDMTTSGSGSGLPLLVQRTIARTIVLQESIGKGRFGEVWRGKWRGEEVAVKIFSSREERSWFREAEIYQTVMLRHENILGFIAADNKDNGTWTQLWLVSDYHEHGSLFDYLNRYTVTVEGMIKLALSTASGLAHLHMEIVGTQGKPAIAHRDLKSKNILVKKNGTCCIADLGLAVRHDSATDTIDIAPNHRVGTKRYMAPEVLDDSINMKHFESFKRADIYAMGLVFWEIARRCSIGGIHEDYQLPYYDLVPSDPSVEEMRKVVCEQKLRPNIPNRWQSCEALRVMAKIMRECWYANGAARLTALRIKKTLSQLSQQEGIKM
Assay: ALK5 Enzyme Assay 2 (fluorescence polarisation probe displacement)
Type: binding
Design: 6His tagged human ALK5 (residues162-503) was grown and purified from insect cells; 6His; made in house; host or cells: insect cells
Conditions: read-out: EAA2: activity (μM) using Enzyme Assay 2
Measured log10 IC50 by item
result type: log10 IC50 (log10 of the value in µM)

* Cc1ccc(Oc2ccnc(Nc3cccc(C(=O)N4CCN(CC(N)=O)CC4)c3)c2)c(C)n1 | -1.08
* Cc1ccc(Oc2ccnc(Nc3ccc(C#N)cc3)c2)c(C)n1 | -0.46
* Cc1ccc(Oc2ccnc(Nc3cccc(C(=O)N4CC[C@H](S(C)(=O)=O)C4)c3)c2)c(C)n1 (single isomer, unassigned) | -1.84
* Cc1ccc(Oc2ccnc(Nc3cccc(NS(C)(=O)=O)c3)c2)c(C)n1 | -1.49
* Cc1cc(Oc2ccnc(Nc3cccc(C(=O)N4CCCCCC4)c3)c2)c(-c2ccccn2)nc1C | -1.95
* Cc1ccc(Oc2ccnc(Nc3ccc(S(N)(=O)=O)cc3)c2)c(-c2ccc(F)cc2)n1 | -1.34
* COc1cc(Nc2cc(Oc3ccc(C)nc3-c3ccc(F)cc3)ccn2)cc(OC)c1OC | -1.62
* COc1cc(Nc2cc(Oc3cccnc3-c3ccc(F)cc3)ccn2)cc(OC)c1OC | -1.48

Reference source for all entries: patent US20090048269A1
